- Test system: Caco-2
- ASSAY_OVERVIEW: cell viability relative to DMSO; higher = less toxic
- TEST_SETTINGS: 72 h; 1000 nM
# cell viability values compiled below
VALUE_KIND: cell viability (%)

INSERT INTO assay_data (chemical_smiles, system_under_test, value_kind, reported_result) VALUES
  ('O=C(Nc1cccnn1)N1CCC(=Cc2cccc(Oc3ccc(C(F)(F)F)cn3)c2)CC1', 'Caco-2', 'cell viability', 96.4),
  ('OC[C@H]1O[C@@H](n2cnc3c(N[C@H]4CCC[C@@H]4O)ncnc32)[C@H](O)[C@@H]1O', 'Caco-2', 'cell viability', 101),
  ('CN(C)C(=O)n1nnnc1Cc1ccc(-c2ccccc2)cc1', 'Caco-2', 'cell viability', 106),
  ('CCOC(=O)O[C@]1(C(=O)OCCl)CC[C@H]2[C@@H]3CCC4=CC(=O)C=C[C@]4(C)[C@H]3[C@@H](O)C[C@@]21C', 'Caco-2', 'cell viability', 92.1),
  ('CC(C)(C)n1nc(-c2ccc(Cl)cc2)c2c(N)ncnc21', 'Caco-2', 'cell viability', 88.2),
  ('O=C(O)c1ccc(N[C@@H]2O[C@H](CO)[C@@H](O)[C@H](O)[C@@H]2O)cc1', 'Caco-2', 'cell viability', 91),
  ('CN(C(=O)Cc1ccc(Cl)c(Cl)c1)[C@H](CN1CCCC1)c1ccccc1', 'Caco-2', 'cell viability', 103),
  ('O=C(/C=C/c1ccc2ccccc2n1)c1ccncc1', 'Caco-2', 'cell viability', 90.6),
  ('N[C@@H](CC(=O)N1CCn2c(nnc2C(F)(F)F)C1)Cc1cc(F)c(F)cc1F', 'Caco-2', 'cell viability', 102);

----------
- Test system: HepG2
- ASSAY_OVERVIEW: cell viability relative to DMSO; higher = less toxic
- TEST_SETTINGS: 72 h; 1 nM
VALUE_KIND: cell viability (%)

INSERT INTO results (compound, result_units, reported_result) VALUES
  ('c1ccc([C@H]2CNCc3ccccc32)cc1 [4-phenyl-1,2,3,4-tetrahydroisoquinoline]', '%', 101),
  ('CCN(C)C(=O)Oc1cccc([C@H](C)N(C)C)c1 [rivastigmine]', '%', 113),
  ('CN1C[C@H](CNC(=O)OCc2ccccc2)C[C@@H]2c3cccc4c3c(cn4C)C[C@H]21 [metergoline]', '%', 101),
  ('CC[C@@]1(O)C(=O)OCc2c1cc1n(c2=O)Cc2cc3c(CN(C)C)c(O)ccc3nc2-1 [topotecan]', '%', 110),
  ('O=C(O)c1ccccc1C(=O)Nc1ccc(-c2ccccc2)cc1 [kartogenin]', '%', 98.4);

----------
# cell viability values compiled below
- Test system: Caco-2
- ASSAY_OVERVIEW: cell viability relative to DMSO; higher = less toxic
- TEST_SETTINGS: 72 h; 10000 nM
VALUE_KIND: cell viability (%)

INSERT INTO measurements (compound, result_units, reported_result) VALUES
  ('Cn1c(COP(=O)(NCCBr)NCCBr)cnc1[N+](=O)[O-]', '%', 89),
  ('Cn1ncc(Cl)c1-c1cc(C(=O)N[C@H](CN)Cc2ccc(F)c(F)c2)oc1Cl', '%', 53.9),
  ('CC(NCCc1ccc(O)cc1)C(O)c1ccc(O)cc1 (stereo not drawn)', '%', 105);
